Source listed as ChEMBL document CHEMBL4513216.

Consider the following compounds and their measured INHIBITION readings.
# Tested on: Plasmodium berghei
# Protocol Notes: Screen against P. berghei liver stage (PbLuc), transformed with Luciferase, at 10uM
# Assay type: functional, HepG2
# Test Settings: tested at 10 uM
About 8,600 (12%) of roughly 69,000 compounds showed an effect of 50% or more. The list comes from a sample in which strong results are over-represented; it also holds close analogues and randomly drawn compounds.
Observable: INHIBITION (%)

- Compound: "O=C1NCC[C@]12CN(Cc1cccnc1)C[C@H]2c1ccccc1"
  Observable: "INHIBITION"
  Endpoint Result: -3.77
- Compound: "CCn1nc(NC(=O)Cn2ccc(C(C)=O)n2)c2ccccc21"
  Observable: "INHIBITION"
  Endpoint Result: 7.38
- Compound: "CN1C[C@@H]2COC[C@]2(C(=O)NCc2cccs2)C1"
  Observable: "INHIBITION"
  Endpoint Result: 4.02
- Compound: "Cc1cc(CNC2(CO)CCOCC2)ccc1Br"
  Observable: "INHIBITION"
  Endpoint Result: 18.6
- Compound: "Cc1cc(CN2CCCC2c2c(C)nn(C)c2Cl)on1 (stereo not given)"
  Observable: "INHIBITION"
  Endpoint Result: 47
- Compound: "Cn1ccnc1SCC(=O)NCc1ccc2c(c1)CCC(=O)N2"
  Observable: "INHIBITION"
  Endpoint Result: 34.2
- Compound: "CCc1ccc(CN2CCN(c3cccc(OC)c3)C(=O)C2)nc1"
  Observable: "INHIBITION"
  Endpoint Result: -8.99
- Compound: "Cn1ncc2c1C(COCC1CC1)N(C(=O)c1ccncn1)CC2 (stereo not given)"
  Observable: "INHIBITION"
  Endpoint Result: 47.4
- Compound: "O=C1NCC[C@]12CN(Cc1ccncc1)C[C@H]2c1ccccc1"
  Observable: "INHIBITION"
  Endpoint Result: 51.3
- Compound: "O=C(c1ccco1)N1CCOCC2(C1)CN(c1ccccn1)C(=O)CO2 (stereo not given)"
  Observable: "INHIBITION"
  Endpoint Result: 22.4
- Compound: "CCn1c(=O)c2cc(S(N)(=O)=O)ccc2n(CC)c1=O"
  Observable: "INHIBITION"
  Endpoint Result: 2.84
- Compound: "Cc1cc(CNCC2(O)CCOCC2)ccc1Br"
  Observable: "INHIBITION"
  Endpoint Result: 54.4
- Compound: "CCS(=O)(=O)N1C[C@@H](c2ccccc2)[C@@]2(CCNC2=O)C1"
  Observable: "INHIBITION"
  Endpoint Result: 48.4
- Compound: "CCC1=NC2(CCC(C(=O)Nc3ccc(F)cc3)CC2)C(=O)N1C (stereo not given)"
  Observable: "INHIBITION"
  Endpoint Result: 42.4
- Compound: "O=C(NCCc1cccs1)[C@]12COC[C@H]1CN(Cc1ccccn1)C2"
  Observable: "INHIBITION"
  Endpoint Result: 24.9
- Compound: "COC(=O)c1ccn(CC(=O)Nc2nn(CC3CC3)c3ccccc23)n1"
  Observable: "INHIBITION"
  Endpoint Result: 32.3
- Compound: "Cn1cc(NC(=O)Cc2ccccc2Br)cc1C(N)=O"
  Observable: "INHIBITION"
  Endpoint Result: -3.21
- Compound: "O=C(NCCc1cccs1)[C@]12COC[C@H]1CN(Cc1ccncc1)C2"
  Observable: "INHIBITION"
  Endpoint Result: 54.8
- Compound: "CC(C)n1cnnc1C1CCCN(S(=O)(=O)c2c[nH]cn2)C1 (stereo not given)"
  Observable: "INHIBITION"
  Endpoint Result: 36.3
- Compound: "COc1cccc(CNCc2nnc3n2CC(C(F)(F)F)CC3)c1 (stereo not given)"
  Observable: "INHIBITION"
  Endpoint Result: 45.1
- Compound: "Cc1csc(CN2C[C@@H]3COC[C@]3(COCC(=O)N(C)C)C2)n1"
  Observable: "INHIBITION"
  Endpoint Result: -2.35
- Compound: "O=C(Nc1cnc2n1CCCC2)C1CCCN1C1CCNCC1 (stereo not given)"
  Observable: "INHIBITION"
  Endpoint Result: 15.7
- Compound: "CN(C)CCn1nc(C2CCN(Cc3ccccc3)C2)c2cccnc21 (stereo not given)"
  Observable: "INHIBITION"
  Endpoint Result: 28.3
- Compound: "O=C(c1cnccn1)N1C[C@@H](c2ccccc2)[C@@]2(CCNC2=O)C1"
  Observable: "INHIBITION"
  Endpoint Result: 74.8
- Compound: "Cc1cnc(C)c(N2C[C@H]3OC(=O)N(C4CCCC4)[C@H]3C2)n1"
  Observable: "INHIBITION"
  Endpoint Result: 68.1
- Compound: "O=C(CC1[C@H]2CN(C(=O)CO)C[C@@H]12)Nc1cccnc1 (stereo not given in full)"
  Observable: "INHIBITION"
  Endpoint Result: 42.6
- Compound: "O=C(CSc1ccccn1)NCc1ccc2c(c1)CCC(=O)N2"
  Observable: "INHIBITION"
  Endpoint Result: 35
- Compound: "Cc1ncsc1CN(Cc1ccccc1)Cc1ncc[nH]1"
  Observable: "INHIBITION"
  Endpoint Result: 46.6
- Compound: "O=C(c1cnccn1)N1CCC2(CC1)C(=O)NCC2c1ccccc1 (stereo not given)"
  Observable: "INHIBITION"
  Endpoint Result: 49.7
- Compound: "Cc1ccc(F)c(C(=O)NC2CCC(N3C(=O)CCC3=O)CC2)c1 (stereo not given)"
  Observable: "INHIBITION"
  Endpoint Result: -35
- Compound: "Cc1ccc(C(N)=O)c(N2C[C@H]3OC(=O)N(C4CCCC4)[C@H]3C2)n1"
  Observable: "INHIBITION"
  Endpoint Result: -14.1
- Compound: "Cc1cccc(NC(=O)N2CCCn3cnc(CN4CCCC4)c3C2)c1"
  Observable: "INHIBITION"
  Endpoint Result: 15.1
- Compound: "CCO[C@@H]1CC[C@H]2[C@H]1OCCN2CCOCc1ccccc1"
  Observable: "INHIBITION"
  Endpoint Result: 41.2
- Compound: "Cc1ccc(NC(=O)[C@H]2C[C@H](C(=O)O)CN(CC3CC3)C2)cn1"
  Observable: "INHIBITION"
  Endpoint Result: 39.4
- Compound: "CNC(=O)C1CN(c2cc(C)ncn2)CCN1Cc1ccccc1 (stereo not given)"
  Observable: "INHIBITION"
  Endpoint Result: -42
- Compound: "CC(=O)c1ccn(CC(=O)Nc2nn(CC3CC3)c3ccccc23)n1"
  Observable: "INHIBITION"
  Endpoint Result: 71.9
- Compound: "Cc1ccc(CN2C(=O)CCC23CCC(NC2CCOC2)CC3)cc1 (stereo not given)"
  Observable: "INHIBITION"
  Endpoint Result: 35.8
- Compound: "CC(C)n1nnc(CC(=O)NCC2(c3ccccc3F)CCOCC2)n1"
  Observable: "INHIBITION"
  Endpoint Result: 27.05
- Compound: "CC(=O)NC1CCN(C(=O)Nc2ccc(SC(F)F)cc2)CC1"
  Observable: "INHIBITION"
  Endpoint Result: 73.5
- Compound: "O=C(NCc1cccs1)[C@]12COC[C@H]1CN(c1ncccn1)C2"
  Observable: "INHIBITION"
  Endpoint Result: 2.41
- Compound: "CC(=O)N(Cc1noc(C)n1)C1CCN(CC(=O)N(C)C2CC2)C1 (stereo not given)"
  Observable: "INHIBITION"
  Endpoint Result: 7.3
- Compound: "CC(C)N1CCN(C(=O)c2ccc(Cn3ccccc3=O)o2)CC1"
  Observable: "INHIBITION"
  Endpoint Result: 14.115
- Compound: "Cc1cc(=O)[nH]c(=O)n1-c1cccc(Cl)c1Cl"
  Observable: "INHIBITION"
  Endpoint Result: 17.1
- Compound: "CCC1c2cccn2CCN1C(=O)c1cc(OC)nc(OC)n1 (stereo not given)"
  Observable: "INHIBITION"
  Endpoint Result: 19.7
- Compound: "COc1ccccc1CN1C(=O)O[C@@H]2CN(c3nc(C)cnc3C)C[C@@H]21"
  Observable: "INHIBITION"
  Endpoint Result: 20.9

----------
# Test system: Plasmodium berghei
# Protocol Notes: Screen against P. berghei liver stage (PbLuc), transformed with Luciferase, at 10uM
# Type: functional, HepG2
# Test Settings: tested at 10 uM
Hit rate of the full screen: of about 69,000 compounds, about 8,600 (12%) showed an effect of 50% or more. The full list was thinned out, with strong results kept by preference.
Parameter threshold = 30%. Response is Yes when INHIBITION meets or exceeds it, else No.

- Molecule: "COC(=O)C(NC(=O)C1CCC1)c1cc(F)ccc1F (configuration not stated)"
  Class Label: "No"
- Molecule: "CCOCC1CN(C(=O)N(C)C)Cc2nnn(CC3CC3)c21 (configuration not stated)"
  Class Label: "No"
- Molecule: "CN(C)CCCNc1ncnc2cccc(F)c12"
  Class Label: "Yes"
- Molecule: "CCS(=O)(=O)NCCCNc1ncnc2cc(F)c(F)cc12"
  Class Label: "No"
- Molecule: "CCN(CCCNc1ncnc2cc(F)c(F)cc12)S(C)(=O)=O"
  Class Label: "No"
- Molecule: "Cc1nc[nH]c1CN1CCC2(CC1)CC(Nc1ncccn1)CO2 (configuration not stated)"
  Class Label: "No"
- Molecule: "CN1CCN(C2CCN(CC(O)c3ccccc3F)CC2)C1=O (configuration not stated)"
  Class Label: "No"
- Molecule: "CN(C)C(=O)CCS(=O)(=O)Cc1coc(-c2ccc(F)cc2)n1"
  Class Label: "No"
- Molecule: "Cc1cnn(-c2cccc(N3CCN(c4cc(C)nc(C)n4)CC3)n2)c1"
  Class Label: "Yes"
- Molecule: "CN(C)C1CCN(Cc2cnc(S(C)(=O)=O)n2CC2CCCCC2)C1 (configuration not stated)"
  Class Label: "Yes"
- Molecule: "CS(=O)(=O)c1ncc(CN2CCCC(C(N)=O)C2)n1CC1CCCCC1 (configuration not stated)"
  Class Label: "No"
- Molecule: "CC(C)c1nnsc1CNC(=O)C1CCN(C(=O)C2CCCC2)CC1"
  Class Label: "Yes"
- Molecule: "O=C(NCc1cc2ccccc2[nH]1)C1CCCN(C(=O)N2CCCC2)C1 (configuration not stated)"
  Class Label: "No"
- Molecule: "CC(C)N1CCc2nnc(COc3cncnc3)n2CC1"
  Class Label: "No"
- Molecule: "c1ccc(CN2CCC(Cc3noc(C4CC4)n3)CC2)cc1"
  Class Label: "No"
- Molecule: "COCc1n[nH]/c(=N\\C(=O)c2c3c(nc4onc(C)c24)CCC3)s1"
  Class Label: "No"
- Molecule: "O=C1NC2(CCN(Cc3ccccc3Cl)CC2)CC1c1ccccc1 (configuration not stated)"
  Class Label: "Yes"
- Molecule: "O=C1NC2(CCN(C(=O)c3ccc(Cl)cc3)CC2)CC1c1ccccc1 (configuration not stated)"
  Class Label: "No"
- Molecule: "N#Cc1ccccc1CN1CCC2(CC1)CC(c1ccccc1)C(=O)N2 (configuration not stated)"
  Class Label: "Yes"
- Molecule: "CN(C)CC(=O)N1Cc2nnn(C)c2C(COCC2CC2)C1 (configuration not stated)"
  Class Label: "No"
- Molecule: "O=C1NC2(CCN(Cc3nccs3)CC2)CC1c1ccncc1 (configuration not stated)"
  Class Label: "Yes"
- Molecule: "COCCn1cc(NC(=O)N(CCC(N)=O)Cc2ccccc2)cn1"
  Class Label: "No"
- Molecule: "N#Cc1cccc(CN2CCC3(CC2)CC(c2ccncc2)C(=O)N3)c1 (configuration not stated)"
  Class Label: "No"
- Molecule: "CC(=O)N(C)C1CCC2(CC1)CNC(=O)c1cc(C)ccc1O2 (configuration not stated)"
  Class Label: "No"
- Molecule: "Cc1ccc(C(=O)N2CCO[C@H]3[C@@H](OCc4ccccn4)CC[C@@H]32)o1"
  Class Label: "No"
- Molecule: "Cn1nnc2c1C(COCC1CC1)CN(C(=O)[C@H]1CCCO1)C2 (some centres not stated)"
  Class Label: "Yes"
- Molecule: "CNc1cc(C2CN(Cc3cccnc3NC)CCO2)nc(C)n1 (configuration not stated)"
  Class Label: "No"
- Molecule: "COCCOc1ncccc1C(=O)N1CCCCC1c1nccs1 (configuration not stated)"
  Class Label: "No"
- Molecule: "CS(=O)(=O)c1ccc(-c2nc(C(=O)N3CCCC3)n3ccccc23)cc1"
  Class Label: "No"
- Molecule: "Cc1cccc(-n2nnnc2C2(NCc3ccco3)CCCCC2)c1"
  Class Label: "No"
- Molecule: "CC(C)NC(=O)CN1CCC(c2cccc(F)c2)C1 (configuration not stated)"
  Class Label: "Yes"
- Molecule: "O=C1NC2(CCN(Cc3ccc(F)cc3)CC2)CC1c1ccncc1 (configuration not stated)"
  Class Label: "Yes"
- Molecule: "CC(C)c1nnsc1CNC(=O)C1CCN(C(=O)C2CCC2)CC1"
  Class Label: "Yes"
- Molecule: "CN(C)C(=O)N1Cc2nnn(C)c2C(COCC2CC2)C1 (configuration not stated)"
  Class Label: "Yes"
- Molecule: "Cc1cnn(-c2cccc(N3CCCCC3)n2)c1"
  Class Label: "Yes"
- Molecule: "COCCN1C(=O)CCC12CCN(C(=O)CC1CC1)CC2"
  Class Label: "No"
- Molecule: "c1ncc2c(n1)CN(c1ncnc3[nH]ccc13)CC2"
  Class Label: "Yes"
- Molecule: "Fc1ccc(CN2CCc3ncnc(C4CC4)c3CC2)cc1"
  Class Label: "Yes"
- Molecule: "O=C(CCc1cccc(C2CCNCC2)n1)N1CCCCC1"
  Class Label: "No"
- Molecule: "CC(C)c1ncc2c(n1)CN(c1ncnc3[nH]ccc13)CC2"
  Class Label: "Yes"
- Molecule: "CCn1nc(C)c2nnn(CC(=O)Nc3cccc(C)c3)c(=O)c21"
  Class Label: "Yes"
- Molecule: "Cc1nc(CC2CCN(Cc3ccc(CCC(C)(C)O)cc3)CC2)no1"
  Class Label: "Yes"
